Tested on: SW1088
ASSAY_DETAILS: MTT test, SW1088
Assay type: cell-based
SETUP_CONDITIONS: Homo sapiens, 10^−5 M, 72 hours, control = 100%, mean ± SEM, read-out: average optical density (MTT), percentage relative to control
Give measured viability at 10 µM for each item. Keep answers brief.
Numbers only, in %.

Look up viability at 10 µM for the entries below, preserving their order.
1. CCN(CC)C(=O)CCn1c(=O)c(-c2ccc(OC)cc2)cc2c(OC)cc(OC)cc21 [CRL8283]
2. COc1ccc(-c2cc3c(OC)ccc(OC)c3nc2O)cc1 [CRL8336]
3. COc1ccc(-c2cc3c(OC)cc(OC)cc3[nH]c2=O)cc1 [CRL8246]
4. COc1ccc(-c2cc3c(OC)cc(OC)c4c3n(c2=O)CCC4=O)cc1 [CRL8285]
5. COc1ccc(-c2cc3c(OC)cc(OC)cc3n(CCN(C)C)c2=O)cc1 [CRL8316]
6. CCN(CC)C(=O)Cn1c(=O)c(-c2ccc(OC)cc2)cc2c(OC)cc(OC)cc21 [CRL8315]
7. COc1ccc(-c2cc3c(OC)cc(OC)cc3nc2S)cc1 [CRL8271]

84.7
101
108
89.8
107
89.1
102

For every listed record, write down its viability at 10 µM.
1. COc1ccc(-c2cc3c(OC)cc(OC)cc3n(CCc3nnn[nH]3)c2=O)cc1 [CRL8256]
2. COc1cccc2cc(-c3ccccc3)c(O)nc12 [CRL8339]

72.1
87.1
